B1: tRNA (parent)
chain: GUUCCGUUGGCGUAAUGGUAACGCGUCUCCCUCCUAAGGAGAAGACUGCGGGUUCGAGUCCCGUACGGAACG

- Variants of: B1
- assay-explanation: yeast fitness relative to wild type (ratio to wild type); higher = fitter; tRNA-Arg(CCU), competitive growth, 37 C, YPD
Fewer inactive variants are shown than the library holds.
yeast fitness listing for selected variants.

- GUUCCGUUGGGGUAAUGGCAACGCGUCUCCCUCCUAAGGGGAAGACUGCGGGUUCGAGUCCCGUAGGGUACG [C11G U19C A40G C66G A69U]: ≤ 0.5

Entry GUUUCGUUGGCGUAAUGGUAACGUGUCUCCCUCCUCAGGAGAAGACUGCGGGUUCGAGUCGCGUACGGAACG [C4U C24U A36C C61G] ; yeast fitness = ≤ 0.5

Entry GUUACGUUCGGGUAAUGGUAACGCGUCUCACUCCUAAGGAGAAGACUGCGGGUUAGAGUCCAGUACGGAACG [C4A G9C C11G C30A C55A C62A] ; yeast fitness = ≤ 0.5

Entry GUUCCGUAGGCGUAAUGGUAACGCAUCUGCCUCCUACGGAGAAGACUGCGGGUUCGAGUCCCGUACGGAACG [U8A G25A C29G A37C] ; yeast fitness = 0.646

Origin of measurements: the RNAGym collection of RNA variant scans (doi:10.1126/science.aae0568)
